Attribution: patent US20260085062A1

What IC50 was measured for each of the following?
target: intracellular CK2α (Homo sapiens, UniProt P19784); assay: Cell-based NanoBRET assay for inhibitor binding to intracellular CK2α; conditions: HCT116 cells transiently transfected with CSNK2A2-NanoLuc fusion vector; Tracer K-5; 2 h; read-out: Assay 3: NanoBRET ™ assay for binding to intracellular CK2α
Sequence (P19784 whole entry, the tested form may be a part): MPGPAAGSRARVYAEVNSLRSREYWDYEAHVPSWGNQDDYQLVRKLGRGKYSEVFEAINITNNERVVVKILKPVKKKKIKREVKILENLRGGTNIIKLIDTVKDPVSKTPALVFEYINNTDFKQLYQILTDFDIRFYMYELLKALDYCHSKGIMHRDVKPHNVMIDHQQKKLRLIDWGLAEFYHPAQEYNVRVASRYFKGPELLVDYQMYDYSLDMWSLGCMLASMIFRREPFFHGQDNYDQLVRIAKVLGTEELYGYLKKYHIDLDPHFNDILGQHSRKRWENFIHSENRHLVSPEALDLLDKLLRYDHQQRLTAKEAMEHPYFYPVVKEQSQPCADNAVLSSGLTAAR

Example results:
structureString	recordedEndpoint	dataValue
O=C(CCNCc1ccc(OC(F)(F)F)c(Cl)c1)NCCCNCc1cc(-n2cnnc2)cc2[nH]ncc12	IC50	> 50 µM
FC(F)(F)Oc1ccc(CNCCCCOCCOc2cc(-n3cnnc3)cc3[nH]nnc23)cc1Cl	IC50	> 50 µM
Fc1cc(CNCCCCOCCNc2c(Cl)c(-n3cnnc3)cc3[nH]ncc23)cc(F)c1OC(F)(F)F	IC50	> 48.9 µM

Give IC50 for each listed item.
1. O=C(Cc1nnc(CCNCc2ccc(OC(F)(F)F)c(Cl)c2)[nH]1)Nc1cc(-n2cnnc2)cc2[nH]ncc12
2. O=C(CCNCc1cccc(CO)c1)NCCCNc1cc(-n2cnnc2)cc2[nH]ncc12

(A)
> 50 µM
> 50 µM
